Tested on: LNCaP (androgen-sensitive human prostate adenocarcinoma)
experimental.protocol: MTS dye cytotoxicity assay, LNCaP
Format: cell-based
condition.context: Homo sapiens, LNCaP, 72 h, read-out: Cytotoxicity IC50, LNCaP, LNCaP, 72 h, MTS
pIC50: −log10 of the molar value.
endpoint.name: pIC50

Task item: Reported pIC50, compound "CO[C@H]1C=CC(=O)[C@]2(C)[C@H]3CC[C@]4(C)[C@](O)([C@@](C)(O)[C@H]5CC(C)=C(C)C(=O)O5)CC[C@@]4(O)[C@@H]3C[C@H]3O[C@]132" : ____
Reply: > 5.70

Task item: Reported pIC50, compound "CC1=C(C)C(=O)O[C@@H]([C@](C)(O)[C@]2(O)CC[C@@]3(O)[C@@H]4[C@@H](O)C=C5C=CCC(=O)[C@]5(C)[C@H]4CC[C@]23C)C1" : ____
Reply: > 5.70

Task item: Reported pIC50, compound "CC1=C(C)C(=O)O[C@@H]([C@](C)(O)[C@]2(O)CC[C@@]3(O)[C@@H]4[C@@H](O)C=C5CC=CC(=O)[C@]5(C)[C@H]4CC[C@]23C)C1" : ____
Reply: > 5.70

Entry source: paper PMC6993142
